Reference for the values: the supplement of paper PMC13380429

System: Vero E6 infected with SARS-CoV-2
assay-remarks: inhibition of SARS-CoV-2 cytopathic effect; higher = more antiviral protection, active = above 15
experimental-setup: 1 nM; 48 h
Record form. Attribute: inhibition of SARS-CoV-2 cytopathic effect. Fill in for each entry.
Numbers only, in %.

Would you please look over these solved cases?
[
  {
    "compound": "O=C(NCc1ccc(F)cc1)N1CCN2C(=O)OC(c3ccccc3)(c3ccccc3)[C@@H]2C1 (racemic)",
    "experimental-target": "Vero E6 infected with SARS-CoV-2",
    "quantitative-result": 1.17
  },
  {
    "compound": "Cc1ccc(C(=O)Cn2c3c(sc2=N)CCCC3)cc1",
    "experimental-target": "Vero E6 infected with SARS-CoV-2",
    "quantitative-result": -1.05
  },
  {
    "compound": "CCOC(=O)Nc1ccc2c(c1)N(C(=O)CCN(CC)CC)c1ccccc1S2",
    "experimental-target": "Vero E6 infected with SARS-CoV-2",
    "quantitative-result": -5.42
  },
  {
    "compound": "CCOC(=O)N1c2ccc(C(F)(F)F)cc2[C@@H](N(Cc2cc(C(F)(F)F)cc(C(F)(F)F)c2)C(=O)OC)C[C@H]1CC",
    "experimental-target": "Vero E6 infected with SARS-CoV-2",
    "quantitative-result": 0.17
  },
  {
    "compound": "CC[C@@H]1C(=O)N(C)c2cnc(Nc3ccc(C(=O)N[C@H]4CC[C@H](N5CCN(CC6CC6)CC5)CC4)cc3OC)nc2N1C(C)C",
    "experimental-target": "Vero E6 infected with SARS-CoV-2",
    "quantitative-result": 4.01
  },
  {
    "compound": "Cc1cc(Nc2cc(C)c(C#N)c(N[C@@H](C)CCCC(C)(C)O)n2)n[nH]1",
    "experimental-target": "Vero E6 infected with SARS-CoV-2",
    "quantitative-result": -1.85
  },
  {
    "compound": "O=C1c2ccc(Nc3ccc(F)cc3F)cc2CCc2ccc(OC[C@H](O)CO)cc21 [skepinone-L]",
    "experimental-target": "Vero E6 infected with SARS-CoV-2",
    "quantitative-result": -0.76
  },
  {
    "compound": "CCOCc1nc2c(N)nc3ccccc3c2n1CC(C)(C)O",
    "experimental-target": "Vero E6 infected with SARS-CoV-2",
    "quantitative-result": 2.06
  },
  {
    "compound": "CO[C@H]1/C=C/O[C@@]2(C)Oc3c(C)c(O)c4c(O)c(cc(O)c4c3C2=O)NC(=O)/C(C)=C\\C=C\\[C@H](C)[C@H](O)[C@@H](C)[C@@H](O)[C@@H](C)[C@H](OC(C)=O)[C@@H]1C",
    "experimental-target": "Vero E6 infected with SARS-CoV-2",
    "quantitative-result": 0.74
  },
  {
    "compound": "O=C(NCCN1CCC2(CC1)C(=O)NCN2c1cccc(F)c1)c1ccc2ccccc2c1",
    "experimental-target": "Vero E6 infected with SARS-CoV-2",
    "quantitative-result": 0.75
  }
]

I'm hoping you can list inhibition of SARS-CoV-2 cytopathic effect for every compound here, please.
1. COc1ccc(C(=O)N2CCCC2=O)cc1
2. CN(C)CCC(c1ccccc1)c1ccccn1 (stereo not given)
3. Cn1cc(-c2ccncc2)c(-c2ccc(OCc3ccc4ccccc4n3)cc2)n1
4. O=C1c2c(O)cccc2C([C@@H]2O[C@H](CO)[C@@H](O)[C@H](O)[C@H]2O)c2cc(CO)cc(O)c21 (stereo not given in full)
5. [Cl][Ti][Cl].c1cc[cH-]c1.c1cc[cH-]c1 [titanocene-dichloride]
6. N[C@@H](CC(=O)Nc1ccc(Oc2cc(F)c(F)cc2Br)cc1)C(=O)O

Reply |
1: 0.63; 2: -0.78; 3: -1.42; 4: -0.62; 5: 3.56; 6: -3.45

I'm hoping you can list inhibition of SARS-CoV-2 cytopathic effect for every compound here, please.
1. Cc1nc2ccccn2c(=O)c1CCN1CCC(C(=O)c2ccc(F)cc2)CC1
2. COCC1(CO)C(=O)C2CCN1CC2 (stereo not given)
3. COc1c(N2C[C@@H]3CCCN[C@@H]3C2)c(F)cc2c(=O)c(C(=O)O)cn(C3CC3)c12
4. COc1ccc(C(=O)c2c(C)n(CCN3CCOCC3)c3ccccc23)cc1
5. CCC(=O)O[C@H]1[C@H](O[C@@H]2[C@@H](C)[C@H](O[C@H]3C[C@@](C)(OC)[C@@H](O)[C@H](C)O3)[C@@H](C)C(=O)O[C@H](CC)[C@@](C)(O)[C@H](O)[C@@H](C)C(=O)[C@H](C)C[C@@]2(C)O)O[C@H](C)C[C@@H]1N(C)C [erythromycin-estolate]
6. NS(=O)(=O)c1cc(Cl)c(Cl)c(S(N)(=O)=O)c1 [diclofenamide]

Reply |
[1.65, -1.69, 1.16, 3.43, -0.2, -2.99]

I'm hoping you can list inhibition of SARS-CoV-2 cytopathic effect for every compound here, please.
1. c1cncc(CN2CCC(n3ncc4c(N5CCOCC5)nc(-c5ccc6[nH]ccc6c5)nc43)CC2)c1
2. C[C@]12CC[C@H](O)CC1=CC[C@@H]1[C@@H]2CC[C@]2(C)C(n3cnc4ccccc43)=CC[C@@H]12
3. COc1cc2c(cc1OC)CN(C(=O)[C@@H](NCc1ccncc1)C(C)(C)C)CC2
4. C[C@@H](Oc1ccc(Cl)cc1)c1ccnc2ncnn12
5. CCC(=O)NO
6. CC(C)c1nc(CN(C)C(=O)N[C@H](C(=O)N[C@@H](Cc2ccccc2)C[C@H](O)[C@H](Cc2ccccc2)NC(=O)OCc2cncs2)C(C)C)cs1 [Ritonavir]
7. CCC(=O)O[C@H](CC(=O)O)C[N+](C)(C)C [levocarnitine-propionate]
8. S=C=Nc1ccc(N=C=S)cc1 [bitoscanate]

Reply |
[1.62, -0.79, 2.06, -0.64, 3, 0.39, -0.81, -1.75]
